Source listed as paper PMC8014119.

Listed here are molecules together with their documented k inac/K i.
subjectOfTest: SARS-CoV-2 Mpro (Severe acute respiratory syndrome coronavirus 2, UniProt P0DTD1)
Type: biochemical
recordedConditions: Table 2; azapeptide nitriles; 50 µM substrate, pH 7.2, 37 °C, 60 min
Give the value in M⁻¹ s⁻¹ but do not write M⁻¹ s⁻¹ after it.

Past entries and their recorded results:
CC(C)C[C@H](NC(=O)[C@@H](NC(=O)OCc1ccccc1)C(C)(C)C)C(=O)N(C)N(C#N)CCC(N)=O [Compound 5] :: 2060
CN(C(=O)[C@H](Cc1ccccc1)NC(=O)OCc1ccccc1)N(C#N)CCC(N)=O [Compound 4] :: 1150

So for CC(C)C[C@H](NC(=O)OCc1ccccc1)C(=O)N(C)N(C#N)CCC(N)=O [Compound 3] , the logged k inac/K i turned out to be 489
